Data credit: PubChem BioAssay

# MEASUREMENT PROTOCOL: DUSP6 inhibitors restoring Erk phosphorylation by chemical complementation, primary imaging in DUSP6-transfected HeLa (AID 609)
# MEASUREMENT PARAMETERS: HeLa MKP-3 transfected, phospho-Erk imaging KS statistic; measured here: nuclear c-Myc green intensity z-score; at 10 µM; cells stimulated with TPA for 15 min
Given measured z-score, output Criterion met if it is greater than or equal to 0.4 and Criterion not met if not.

INSERT INTO measurements (compound, label_value) VALUES
  ('Nc1[nH]nc2nc(NCc3ccccc3)c3c(c12)CCN(Cc1ccccc1)C3', 'Criterion not met'),
  ('CCCOc1ccc(/C(O)=C2/C(=O)C(=O)N(CCN(C)C)C2c2ccc(OC)c(OC)c2)cc1 (stereo not drawn)', 'Criterion met'),
  ('C=CCSc1nnc2n(CCc3ccccc3)c(=O)c3c4c(sc3n12)COC(C)(C)C4', 'Criterion not met'),
  ('CC(=O)OC12CC3CC(C1)C(=NO)C(C3)C2', 'Criterion not met'),
  ('CCOc1cccc(-c2nn3c(-c4ccco4)nnc3s2)c1', 'Criterion not met');

Q: I'd appreciate it if you could say whether CCCCN(CCCC)CCCOC(=O)c1ccc(N)cc1 has z-score at least equal to 0.4.
Result: Criterion not met

Q: I'd appreciate it if you could say whether O=C(CSc1nnc(-c2ccccc2)c(-c2ccccc2)n1)N1CCOCC1 has z-score at least equal to 0.4.
Result: Criterion not met

Q: I'd appreciate it if you could say whether Cn1c(O)c(C=Nc2ccc(Cc3ccncc3)cc2)c(=O)n(C)c1=O has z-score at least equal to 0.4.
Result: Criterion not met

Q: I'd appreciate it if you could say whether COc1ccc(-c2nnc3sc(COc4ccccc4)nn23)cc1 has z-score at least equal to 0.4.
Result: Criterion not met

Q: I'd appreciate it if you could say whether O=C1C2ON(c3ccccc3)C(c3ccncc3)C2C(=O)N1c1ccc(Br)cc1 (stereo not drawn) has z-score at least equal to 0.4.
Result: Criterion not met

Q: I'd appreciate it if you could say whether COc1ccc(-c2cc(=O)[nH]c(=O)[nH]2)cc1 has z-score at least equal to 0.4.
Result: Criterion met

Q: I'd appreciate it if you could say whether Oc1ccccc1-c1nc(NCCN2CCOCC2)c2ccccc2n1 has z-score at least equal to 0.4.
Result: Criterion met

----------
# MEASUREMENT PROTOCOL: inhibitors of TNFa-induced NFkB p65 translocation, primary screen, imaging, HUVEC, MLSMR starter and 10KST1 sets (AID 438);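 note: compound added about 3h40 before a 20 min TNFalpha stimulation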
# MEASUREMENT PARAMETERS: HUVEC TNFa-induced p65 nuclear translocation; measured here: nuclei count (cytotoxicity indicator), at 2.08 µM
PROPERTY MEASURED: cell count
A bare number is all that is needed in reply.

INSERT INTO assay_data (compound, property_measured, assay_result) VALUES
  ('Cc1ccc(/C(O)=C2/C(=O)C(=O)N(Cc3ccco3)C2c2cccs2)cc1 (stereo not given)', 'cell count', 592),
  ('CCn1cc(C(=O)NCCc2ccccc2)c(=O)c2cc(F)c(N3CCN(C)CC3)cc21', 'cell count', 483),
  ('O=C(O)CC(NC(=O)COc1ccc(Cl)cc1Cl)C(=O)O (stereo not given)', 'cell count', 629),
  ('O=C(NC1CCS(=O)(=O)C1)c1c(NC(=O)C2COc3ccccc3O2)sc2c1CCCC2 (stereo not given)', 'cell count', 657);

Q: What cell count value was documented for this compound, CC(C(=O)N1CCOCC1)N1C(=O)c2ccccc2C1=O (stereo not given) ?
Result: 306

----------
# MEASUREMENT PROTOCOL: inhibitors of E-selectin induction by TNFa, primary screen, imaging, HUVEC, immunofluorescence, MLSMR starter and 10KST1 sets (AID 487);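 for nuclei count: 100% = median nuclei count of all wells on the same plate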
# MEASUREMENT PARAMETERS: HUVEC TNFalpha-induced E-selectin immunofluorescence imaging, at 2 µM; measured here: cell number, toxicity
Recorded measurements of nuclei count, one per entry
Report the figure along with its unit, number first.

INSERT INTO assay_data (compound, property_measured, assay_result) VALUES
  ('CCCC(=O)N1CCN(c2nc(CC(C)C)c3c(c2C#N)CCC3)CC1', 'nuclei count', '130%');

Then there is this compound:
Q: What nuclei count value was documented for this compound, Cc1c(/C(O)=C2/C(=O)C(=O)N(CCCN3CCOCC3)C2c2ccncc2)cnn1-c1ccccc1 (stereo unspecified) ?
Result: 149%

----------
# MEASUREMENT PROTOCOL: inhibitors of E-selectin induction by TNFa, primary screen, imaging, HUVEC, immunofluorescence, MLSMR starter and 10KST1 sets (AID 487);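 for inhibition: signal is fraction of cell area covered by stained E-selectin grains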
# MEASUREMENT PARAMETERS: HUVEC TNFalpha-induced E-selectin immunofluorescence imaging, at 2 µM; stronger effect = higher value
Given measured inhibition, output yes (1) if it is greater than or equal to -20% and no (0) if not.

INSERT INTO results (molecule, label_value) VALUES
  ('COC(=O)C1C(=O)CC(C)(O)C(C(=O)OC)C1c1ccccc1F (stereo unspecified)', 'no (0)'),
  ('O=c1[nH]c(-c2ccccn2)nc2ccccc12', 'no (0)');

Q: I'd appreciate it if you could say whether C=CCOc1nc2c(c(=O)n(C)c(=O)n2C)n1Cc1ccc(Cl)cc1 has inhibition at least equal to -20%.
Result: yes (1)

Q: I'd appreciate it if you could say whether COc1ccc(Cl)cc1N=Cc1c(O)cc(C)oc1=O has inhibition at least equal to -20%.
Result: no (0)

Q: I'd appreciate it if you could say whether CCCCC(=O)Nc1c(O)c2ccccc2[nH]c1=O has inhibition at least equal to -20%.
Result: no (0)

Q: I'd appreciate it if you could say whether COc1ccc(/C(O)=C2\C(=O)C(=O)N(c3cc(C)on3)C2c2ccccc2OC)cc1 (stereo unspecified) has inhibition at least equal to -20%.
Result: no (0)

Q: I'd appreciate it if you could say whether CC(O)Cn1ccccc1=N (stereo unspecified) has inhibition at least equal to -20%.
Result: no (0)

Q: I'd appreciate it if you could say whether COc1cc([C@@H]2c3cc4c(cc3[C@H](O)[C@H]3COC(=O)[C@H]23)OCO4)cc(OC)c1OC has inhibition at least equal to -20%.
Result: no (0)

Q: I'd appreciate it if you could say whether N#CC1=C(N)NC(SCc2ccc(F)cc2)=C(C#N)C12CCCCC2 has inhibition at least equal to -20%.
Result: yes (1)

Q: I'd appreciate it if you could say whether COc1cccc2c(=O)c(SC(F)(F)C(F)C(F)(F)F)c(C)[nH]c12 (stereo unspecified) has inhibition at least equal to -20%.
Result: yes (1)

Q: I'd appreciate it if you could say whether O=C1C=C(O)CC(c2ccco2)C1 (stereo unspecified) has inhibition at least equal to -20%.
Result: no (0)

----------
# MEASUREMENT PROTOCOL: inhibitors of Sendai virus-induced IRF3 signaling, primary screen, TLR/RLR signaling modifier project, cell-based, Sendai virus stimulus, luciferase, 10K MLSCN set (AID 602276);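 note: firefly luciferase from ISG56 promoter only with Renilla not read in this screen; 0% = Sendai virus plus DMSO and 100% = medium plus DMSO without virus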
# MEASUREMENT PARAMETERS: HEK293 RL24 IRF3 luciferase reporter, at 10 µM, stronger effect = higher value
PROPERTY MEASURED: inhibition (%)
Write the answer as a number in %, unit excluded.

INSERT INTO assay_data (compound, assay_result) VALUES
  ('CCn1cc(C(=O)NCc2ccco2)c(=O)c2cc(F)c(N3CCN(C(=O)c4ccco4)CC3)cc21', 14.3),
  ('CC1(C)Cc2c(C#N)c(SCCC#N)nc(N3CCOCC3)c2CS1', 15.2),
  ('COc1cccc(OC)c1C(=O)N1CCN(S(=O)(=O)c2ccc(C)cc2)CC1', 5.77);

Q: What inhibition value was documented for this compound, CN1CCCN(C(c2ccccc2)c2ccc(Cl)cc2)CC1 (stereo not drawn) ?
Result: -26.9

Q: What inhibition value was documented for this compound, CCn1nc(C(=O)O)c(=O)c2cc3c(cc21)OCO3 ?
Result: 8.87

Q: What inhibition value was documented for this compound, CC(C)(C)NCC(O)c1cc(O)cc(O)c1 (stereo not drawn) ?
Result: 7.09

----------
# MEASUREMENT PROTOCOL: DUSP6 inhibitors restoring Erk phosphorylation by chemical complementation, primary imaging in DUSP6-transfected HeLa (AID 609)
# MEASUREMENT PARAMETERS: HeLa MKP-3 transfected, phospho-Erk imaging KS statistic; measured here: cell density z-score; at 10 µM; cells stimulated with TPA for 15 min
Recorded measurements of z-score, one per entry
A bare number is all that is needed in reply.

INSERT INTO results (compound, assay_result) VALUES
  ('CCOC(=O)C1=C(CSc2nc(C)cc(C)c2C#N)OC(N)=C(C#N)C1c1cccs1 (stereo unspecified)', 0.722);

Q: What z-score value was documented for this compound, O=C(NC1(C(F)(F)F)C(=O)Nc2c1c(=O)[nH]c(=O)n2Cc1ccco1)C1CCCCC1 (stereo unspecified) ?
Result: -1.32

Q: What z-score value was documented for this compound, COc1ccc(C2C=C(c3ccc(Cl)cc3)Nc3nc(NC(C)=O)nn32)cc1 (stereo unspecified) ?
Result: -0.557

Q: What z-score value was documented for this compound, Cc1nc2oc(C(=O)c3ccc(Br)cc3)c(N)c2c2c1COC(C)(C)C2 ?
Result: 0.13

Q: What z-score value was documented for this compound, Cn1nnc2c(sc3nc(N4CCOCC4)c4c(c32)CCCC4)c1=O ?
Result: 3.22
